- Description: Polyoxyethylene stearyl ethers, 3 wt. % Polyoxypropylene fatty alcohol ethers, 3 wt. % Deionized water, 94 wt. % Further, in all cases, unless otherwise noted, the tests were carried out at 37° C. and results were compared to penetration data for the same material in the oil/water emulsion base. […] Samples are analyzed using standard analytical techniques. […]
Counter-ions that a name gives are not always drawn.
propertyMeasured: 24 hour penetration (total micrograms base)

compound: NS(=O)(=O)c1cc2c(cc1Cl)NCNS2(=O)=O [HCTZ, HYDROCHLOROTHIAZIDE, reference compound]
reportedMeasurement: 1.7 micrograms base
--
compound: Cc1ccc(/C(=C\CN2CCCC2)c2ccccn2)cc1 [TRP, TRIPROLIDINE HCL, reference compound]
reportedMeasurement: 180 micrograms base
--
compound: CC(C)NCC(O)c1cc(O)cc(O)c1 (stereo not shown) [MET, METAPROTERENOL SULFATE, reference compound]
reportedMeasurement: 47.6 micrograms base
--
compound: CNC[C@H](O)c1cccc(O)c1 [PHE, PHENYLEPHRINE HCL, reference compound]
reportedMeasurement: 266 micrograms base

---

Item-by-item account of 24 hour penetration (total micrograms base)
Counter-ions that a name gives are not always drawn.
propertyMeasured: 24 hour penetration (total micrograms base)

molecule: CC(=O)Oc1ccccc1C(=O)O [ASA, ASPIRIN, reference compound]
reportedMeasurement: 87.5 micrograms base
//
molecule: CN(C)CCN(Cc1ccccc1)c1ccccn1 [TPL, TRIPELENNAMINE HCL, reference compound]
reportedMeasurement: 196 micrograms base
//
molecule: c1ccc2c(CC3=NCCN3)cccc2c1 [NAP, NAPHAZOLINE HCL, reference compound]
reportedMeasurement: 161 micrograms base

---

Item-by-item account of 24 hour penetration of tripelennamine HCl (total micrograms base)
- conditionContext: 2% TPL in B with 0.5% imidazole derivative; Table 2; average of multiple determinations
propertyMeasured: 24 hour penetration of tripelennamine HCl (total micrograms base)

molecule: CCCCCCCCCCCCCCCCCc1ncc[nH]1 [2-[…]]
reportedMeasurement: 358
--
molecule: c1ccc(-c2ncc[nH]2)cc1
reportedMeasurement: 435
--
molecule: c1ccc(-n2ccnc2)cc1
reportedMeasurement: 450
--
molecule: c1ccc(-c2c[nH]cn2)cc1
reportedMeasurement: 368
--
molecule: Cn1ccnc1
reportedMeasurement: 728
--
molecule: Cc1c[nH]cn1
reportedMeasurement: 477

---

- conditionContext: multiple of average control determination of the same study; 2% TPL in B with 0.5% imidazole derivative; Table 2
Answer NOT MET if Increase in penetration relative to control is under 3, and MET if it is 3 or more.

molecule: c1ccc(-n2ccnc2)cc1
assignedCategory: NOT MET
//
molecule: c1ccc(Cn2ccnc2)cc1
assignedCategory: NOT MET
//
molecule: CCCCCCCCCCCCCCCCCc1ncc[nH]1 [2-[…]]
assignedCategory: NOT MET
//
molecule: NNC(=O)c1c[nH]cn1 [4-CARBOXYLIC ACID HYDRAZIDE IMIDAZOLE]
assignedCategory: NOT MET
//
molecule: c1ccc(-c2ncc[nH]2)cc1
assignedCategory: NOT MET
//
molecule: Cc1c[nH]cn1
assignedCategory: MET
//
molecule: OCc1c[nH]cn1 [4-HYD[…], 4-hydroxymethyl imidazole]
assignedCategory: MET

---

Answer Condition not met if 24 hour penetration of tripelennamine HCl (total micrograms base) is under 300 micrograms base, and Condition met if it is 300 micrograms base or more.

compound: Cc1ncc[nH]1
assignedCategory: Condition met
//
compound: CC(C)n1ccnc1
assignedCategory: Condition met
//
compound: CCCc1ncc[nH]1
assignedCategory: Condition met
//
compound: O=[N+]([O-])c1c[nH]cn1
assignedCategory: Condition not met
//
compound: O=C(/C=C/c1ccccc1)n1ccnc1 [N-TRANS-CINNAMOYL]
assignedCategory: Condition not met
//
compound: Cc1nccn1C
assignedCategory: Condition met
//
compound: CCCCn1ccnc1
assignedCategory: Condition met
//
compound: Cc1nc[nH]c1CO [4-(HYDROXYMETHYL) 5-METHYL IMIDAZOLE]
assignedCategory: Condition not met
//
compound: CCCCCCCCCCn1ccnc1
assignedCategory: Condition met
//
compound: Cc1nccn1Cc1ccccc1
assignedCategory: Condition met
//
compound: CC(C)=CCCC(C)=CCn1ccnc1
assignedCategory: Condition met
//
compound: CCC(=O)n1ccnc1
assignedCategory: Condition met
//
compound: CCCCCCCCCCCCn1ccnc1
assignedCategory: Condition met
//
compound: NCCCn1ccnc1
assignedCategory: Condition met
//
compound: N[C@H](Cc1c[nH]cn1)C(=O)O
assignedCategory: Condition not met

---

propertyMeasured: Increase in penetration relative to control

compound: CC(C)n1ccnc1
reportedMeasurement: 2.9

compound: CCC(=O)n1ccnc1
reportedMeasurement: 2.5

compound: CCCCCCCCCCn1ccnc1
reportedMeasurement: 3.7

compound: N[C@H](Cc1c[nH]cn1)C(=O)O
reportedMeasurement: 2.8

compound: O=C(/C=C/c1ccccc1)n1ccnc1 [N-TRANS-CINNAMOYL]
reportedMeasurement: 1.8

compound: CCCCn1ccnc1
reportedMeasurement: 2.1

compound: Cc1nccn1C
reportedMeasurement: 4.3

compound: Cc1nccn1Cc1ccccc1
reportedMeasurement: 1.8

compound: CC(C)=CCCC(C)=CCn1ccnc1
reportedMeasurement: 2.6

compound: O=[N+]([O-])c1c[nH]cn1
reportedMeasurement: 1.2

compound: Cc1nc[nH]c1CO [4-(HYDROXYMETHYL) 5-METHYL IMIDAZOLE]
reportedMeasurement: 1.2

compound: CCCc1ncc[nH]1
reportedMeasurement: 2.2

compound: Cn1cc[nH]c1=S [METHIMIDAZOLE, methimazole, reference compound]
reportedMeasurement: 3.5

compound: CCCCCCCCCCCCn1ccnc1
reportedMeasurement: 4.0

compound: Cc1ncc[nH]1
reportedMeasurement: 2.6

compound: NCCCn1ccnc1
reportedMeasurement: 2.5

---

- conditionContext: 2% TPL in B with 0.5% imidazole derivative; Table 2; average of multiple determinations
propertyMeasured: 24 hour penetration of tripelennamine HCl (total micrograms base)

compound: NNC(=O)c1c[nH]cn1 [4-CARBOXYLIC ACID HYDRAZIDE IMIDAZOLE]
reportedMeasurement: 143
--
compound: OCc1c[nH]cn1 [4-HYD[…], 4-hydroxymethyl imidazole]
reportedMeasurement: 224
--
compound: c1ccc(Cn2ccnc2)cc1 [1-BENZYL IMIDAZOLE]
reportedMeasurement: 277
